Reference source: ChEMBL document CHEMBL2434821

tested on: MCF7; experiment: Cytotoxicity against human MCF7 cells after 72 hrs by MTT assay; format: functional, cell-based; conditions: MCF7, 72 h
pIC50: −log10 of the molar value.
The entries below are paired with their reported pIC50.
OBSERVED_PROPERTY: pIC50

INSERT INTO results (smiles_input, numeric_value) VALUES
  ('CCCCC/C=C\C/C=C\CCCCCCCC(=O)Oc1ccc(C(=O)c2cc(OC)c(OC)c(OC)c2)cc1OC', 6.13),
  ('CCCCCCCC/C=C\CCCCCCCC(=O)Oc1cc(C(=O)c2cc(OC)c(OC)c(OC)c2)ccc1OC', 6.03),
  ('COc1cc(C(=O)c2cc(OC)c(OC)c(OC)c2)ccc1O', 6.70),
  ('CCCCCCCC/C=C\CCCCCCCC(=O)Oc1ccc(C(=O)c2cc(OC)c(OC)c(OC)c2)cc1OC', 5.66),
  ('COc1cc2c(c(OC)c1OC)-c1ccc(OC)c(=O)cc1[C@@H](NC(C)=O)CC2', 7.72),
  ('CCCCCCCCCCCCCCCCCC(=O)Oc1ccc(C(=O)c2cc(OC)c(OC)c(OC)c2)cc1OC', 4.57),
  ('CCCCC/C=C\C/C=C\CCCCCCCC(=O)Oc1cc(C(=O)c2cc(OC)c(OC)c(OC)c2)ccc1OC', 6.74),
  ('CCCCCCCCCCCCCCCCCC(=O)Oc1cc(C(=O)c2cc(OC)c(OC)c(OC)c2)ccc1OC', 5.47),
  ('COc1ccc(C(=O)c2cc(OC)c(OC)c(OC)c2)cc1O', 7.72);
